# System: MDA-MB-468 breast
# Assay Info: NCI tumour cell line growth inhibition, 48 h
TGI for assorted molecules
// return numeric value only (unit: µM, not printed)

Here is how some molecules turned out for TGI.
{"Molecule": "COc1cc(OC)cc(C(=O)Nc2cccc(C#Cc3cccc4[nH]nc(N)c34)c2)c1", "Property Measured": "TGI", "Endpoint Value": 3.92}
{"Molecule": "O=C1c2cccc3cccc(c23)C(=O)N1CC#Cc1ccc2c3c(cccc13)C(=O)N(CCN1CCNCC1)C2=O", "Property Measured": "TGI", "Endpoint Value": 5.3}

The record that follows has no TGI shown yet.
Report TGI for CCCCCCCCCCCCNC(=O)[C@H]1CSC(c2cc(Br)cs2)N1 (some centres undefined) please.
1.74

----------
# Test system: MDA-MB-468 breast
# Assay Info: NCI tumour cell line growth inhibition, 48 h
TGI for assorted compounds
// return numeric value only (unit: µM, not printed)

Here is how some compounds turned out for TGI.
{"Compound": "COc1cc2nc(Cl)nc(Nc3cccc(C4=Nc5c(N)nc(N)nc5NC(c5ccc(Cl)cc5)C4)c3)c2cc1OC (stereo not given)", "Property Measured": "TGI", "Endpoint Value": 3.49}
{"Compound": "O=[N+]([O-])c1ccc(Oc2cccc(C(F)(F)F)c2)c([N+](=O)[O-])c1", "Property Measured": "TGI", "Endpoint Value": 3.1}
{"Compound": "COc1ccc(C2=NNC(c3cc(Cc4ccc(O)c(C5CC(c6ccc(OC)cc6)=NN5)c4)ccc3O)C2)cc1 (stereo not given)", "Property Measured": "TGI", "Endpoint Value": 22.9}
{"Compound": "COc1ccccc1N(C(C)=O)C1=C(Cl)C(=O)c2ccccc2C1=O", "Property Measured": "TGI", "Endpoint Value": 1.94}
{"Compound": "Cc1ccn2c(-c3csc(Nc4cccc(O)c4)n3)c(C)nc2c1", "Property Measured": "TGI", "Endpoint Value": 7.91}
{"Compound": "CCOC(=O)c1c(C(F)(F)F)n([O-])c2ccc(Cl)cc2[n+]1=O", "Property Measured": "TGI", "Endpoint Value": 3.92}
{"Compound": "Cc1ccc(NC(C(=O)c2ccccc2)c2ccccc2)cc1 (stereo not given)", "Property Measured": "TGI", "Endpoint Value": 8.85}
{"Compound": "NC(Cc1ccc(O)cc1)C(=O)N/N=C/c1ccc(N(CCCl)CCCl)cc1 (stereo not given)", "Property Measured": "TGI", "Endpoint Value": 10.5}

The record that follows has no TGI shown yet.
Report TGI for O=S1CCN(Cc2ccc(-c3ccc4ncnc(Nc5ccc(OCc6ccccc6)c(F)c5)c4c3)o2)CC1 please.
1.19

----------
# Tested on: MDA-MB-468 breast
# Assay Info: NCI tumour cell line growth inhibition, 48 h
GI50 for assorted compounds

{"Compound": "Cc1ccc2c(n1)C(=O)C(Cl)=C(Nc1ccc(N3CCN(C)CC3)cc1)C2=O", "GI50": "1510 nM"}
{"Compound": "C=C1C(=O)O[C@H]2[C@H]1CC/C(COC(=O)c1cccc3ccccc13)=C\\CC[C@@]1(C)O[C@@H]21", "GI50": "1350 nM"}
{"Compound": "Nc1ncnc2c1nc(N)n2C1OC(CO)C(O)C1O (stereo not drawn)", "GI50": "220 nM"}
{"Compound": "O=[N+]([O-])c1ccc(Oc2cccc(C(F)(F)F)c2)c([N+](=O)[O-])c1", "GI50": "1640 nM"}
{"Compound": "Cc1ccc(NC(C(=O)c2ccccc2)c2ccccc2)cc1 (stereo not drawn)", "GI50": "2180 nM"}
{"Compound": "NC(Cc1ccc(O)cc1)C(=O)N/N=C/c1ccc(N(CCCl)CCCl)cc1 (stereo not drawn)", "GI50": "958 nM"}

Report GI50 for N#Cc1ccc(N2Cc3cc(Cl)ccc3OC3=C2C(=O)N(Cc2ccc(F)cc2)C3=O)cc1 please.
595 nM

Report GI50 for O=C1c2cccc3cccc(c23)C(=O)N1CC#Cc1ccc2c3c(cccc13)C(=O)N(CCN1CCNCC1)C2=O please.
2190 nM
